# System: HOP-62
# protocol: NCI tumour cell line growth inhibition, 48 h
Active and inactive are the calls of the source. Rule as the data show it: active = GI50 up to about 1.1 µM and inactive = higher.
Would you mind answering with one of these outcomes? active, inactive

Use the examples below as a reference point.
compound	class
COc1cc2c(OC)cc1CSCc1sc(C)c(c1Br)CSC2	inactive
N#Cc1ccc(CSC2=C(c3ccc(Cl)cc3)S/C(=C3\SC(SCc4ccc(C#N)cc4)=C(c4ccc(Cl)cc4)S3)S2)cc1	inactive
COC(=O)c1cc(C)ccc1CC(Cc1ccccc1C)C(=O)OC (stereo unspecified)	inactive
COc1ccc(NC(=O)COC(=O)c2cccc3c(=O)c4ccccc4[nH]c23)cc1	inactive
Cc1cc(NC(=O)NC(=O)c2ccccc2N(C)C)ccc1Oc1ncc(Br)cn1	active

Tell me the recorded outcome of this test for CC(C)C1SCc2nc3ccccc3n21 (stereo unspecified) . inactive

* * *

# System: ACHN
# protocol: NCI tumour cell line growth inhibition, 48 h
Activity calls are given as the source filed them. Rule as the data show it: active = GI50 up to about 1.1 µM and inactive = higher.
assay_endpoint: GI50

CCOC(=O)c1c2c(n(-c3ccc(C)cc3)c1C)-c1ccccc1C(=O)C2(C(=O)OCC)C(=O)OCC 44.3 µM (inactive)
O=CN/C=C/c1cccc(O)c1 50 µM (inactive)
OCC(CN1CCCCC1)(CN1CCCCC1)CN1CCCCC1 > 100 µM (inactive)

Entry under review: "CC(=O)N1C/C(=C\c2ccc(N(C)C)cc2)C(=O)/C(=C/c2ccc(N(C)C)cc2)C1" . Reported GI50? 87.5 µM (inactive)

Entry under review: "Cc1ccc(Cc2n[nH]c(=O)n2/N=C\CC/C=N\n2c(Cc3ccc(C)cc3)n[nH]c2=O)cc1" . Reported GI50? 47.1 µM (inactive)

* * *

# GI50 listing for each entry below
# System: MDA-MB-435
# protocol: NCI tumour cell line growth inhibition, 48 h
Active and inactive are the calls of the source. No stated cut-off is given here; in the data, active = GI50 up to about 1.1 µM and inactive = higher.

Examples from the recorded data:
compound	GI50
COC1OC2COC(C)(C)OC2C2OC(C)(C)OC12 (configuration not stated)	> 100 µM (inactive)
CC[C@H](NC1=C(Cl)C(=O)c2c(O)ccc(O)c2C1=O)C(=O)OC	3.26 µM (inactive)
CC(NC(=O)Cc1ccc(OP(=O)(OCc2ccc([N+](=O)[O-])o2)N(C)CCCCCl)cc1)c1ccc(OCC2CCCCC2)c(C(N)=O)c1 (configuration not stated)	1.89 µM (inactive)
Cc1sc2nc3n(c(=O)c2c1C)N=C(c1ccc(Cl)cc1)CS3	> 100 µM (inactive)
CC1C(c2ccc3c(c2)OCO3)c2cc3c(cc2OC1N1CCCCC1)OCO3 (configuration not stated)	25.2 µM (inactive)
CN(C)CCCN1c2ccc([N+](=O)[O-])cc2CCc2cccc([N+](=O)[O-])c21	14.6 µM (inactive)
CC(=O)OCC1OC(n2c(C)c(C(C)=O)c(-c3ccc(Cl)cc3)c(C#N)c2=S)C(OC(C)=O)C(OC(C)=O)C1OC(C)=O (configuration not stated)	> 100 µM (inactive)
COc1ccc(OC)c(N2C(=O)CSC2c2cc(OC)c(OC)c(OC)c2)c1 (configuration not stated)	29.8 µM (inactive)
COc1ccc(OC)c2sc(N3C(=O)/C(=C/c4ccccc4S)N=C3c3ccccc3)nc12	17.6 µM (inactive)
O=C(O)CNCc1c2ccccc2nc2ccccc12	36.6 µM (inactive)

Entry under review: "CCc1cccc(CC)c1Nc1nc2c(s1)C(=O)c1ccccc1C2=O" . Reported GI50? 17.5 µM (inactive)

Entry under review: "O=C(O)/C=C/C(=O)O" . Reported GI50? > 100 µM (inactive)

Data provenance: ChEMBL document CHEMBL1201862
